Data origin, for the record: patent US20110046179A1

Reported IC50 is given for each of the following compounds.
Biological target: dopamine (DA) reuptake in synaptosomes (Rattus norvegicus, UniProt P23977)
Construct: in synaptosomes as described in WO 97/16451
Sequence (P23977 whole entry): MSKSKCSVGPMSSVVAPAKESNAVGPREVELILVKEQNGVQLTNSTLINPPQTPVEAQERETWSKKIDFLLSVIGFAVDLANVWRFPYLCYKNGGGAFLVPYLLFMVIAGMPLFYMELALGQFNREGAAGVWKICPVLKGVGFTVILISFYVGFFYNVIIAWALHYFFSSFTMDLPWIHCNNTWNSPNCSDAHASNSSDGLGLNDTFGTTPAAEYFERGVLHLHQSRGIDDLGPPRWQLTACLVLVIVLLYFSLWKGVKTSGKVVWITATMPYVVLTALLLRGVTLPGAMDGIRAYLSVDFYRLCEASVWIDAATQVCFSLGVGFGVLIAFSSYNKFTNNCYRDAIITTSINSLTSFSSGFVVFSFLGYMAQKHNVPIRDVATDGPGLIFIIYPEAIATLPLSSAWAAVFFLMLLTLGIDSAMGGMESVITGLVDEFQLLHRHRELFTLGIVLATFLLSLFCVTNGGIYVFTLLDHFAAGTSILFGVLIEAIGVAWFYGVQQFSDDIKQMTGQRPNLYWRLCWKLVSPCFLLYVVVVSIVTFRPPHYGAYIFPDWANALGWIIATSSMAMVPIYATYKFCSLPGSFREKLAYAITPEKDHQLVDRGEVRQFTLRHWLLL
Assay: Inhibition of DA reuptake in synaptosomes
Settings: 3H-DA, read-out: DA-uptake IC50
Experimental: A number of compounds were tested for their ability to inhibit the reuptake of the monoamine neurotransmitters dopamine (DA) noradrenaline (NA) and serotonine (5-HT) in synaptosomes as described in WO 97/16451. The test values are given as IC50 (the concentration (μM) of the test substance which inhibits the specific binding of ^3H-DA, ^3H-NA, or ^3H-5-HT by 50%).

structure string | IC50 / nM
COCC1(Cc2ccc(Cl)c(Cl)c2)CCNCC1.O=C(O)/C=C/C(=O)O | 1600
Clc1ccc(OCC2(Cc3ccccc3)CCNCC2)cc1Cl | 6

###

Biological target: noradrenaline (NA) reuptake in synaptosomes (Rattus norvegicus)
Construct: in synaptosomes as described in WO 97/16451
Sequence (Q63380 1-617): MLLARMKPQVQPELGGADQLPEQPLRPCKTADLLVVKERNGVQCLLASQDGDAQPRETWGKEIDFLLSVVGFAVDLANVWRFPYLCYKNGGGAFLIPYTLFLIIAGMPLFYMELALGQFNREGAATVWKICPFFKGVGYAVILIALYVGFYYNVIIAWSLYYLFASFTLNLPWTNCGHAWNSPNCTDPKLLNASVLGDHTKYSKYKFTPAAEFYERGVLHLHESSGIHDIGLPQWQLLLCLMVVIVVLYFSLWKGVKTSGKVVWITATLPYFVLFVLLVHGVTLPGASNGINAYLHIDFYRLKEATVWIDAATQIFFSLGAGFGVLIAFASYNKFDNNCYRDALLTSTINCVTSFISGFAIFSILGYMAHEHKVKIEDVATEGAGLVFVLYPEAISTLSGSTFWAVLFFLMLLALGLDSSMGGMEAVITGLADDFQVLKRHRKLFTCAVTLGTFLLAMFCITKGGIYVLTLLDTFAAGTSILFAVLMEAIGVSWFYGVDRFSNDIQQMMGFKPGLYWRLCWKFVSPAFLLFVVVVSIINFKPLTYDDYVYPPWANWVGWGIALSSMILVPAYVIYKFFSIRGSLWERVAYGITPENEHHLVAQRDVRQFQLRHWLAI
Test: Inhibition of NA reuptake in synaptosomes
Details: 3H-NA, read-out: NA-uptake IC50

structure string | IC50 [nM]
COCC1(Cc2ccc(Cl)c(Cl)c2)CCNCC1.O=C(O)/C=C/C(=O)O | 480
Clc1ccc(OCC2(Cc3ccccc3)CCNCC2)cc1Cl | 4.8

###

Reported melting point is given for each of the following compounds.
Structures can show the parent of a compound that is named as a salt.
property: melting point

compound | property | value measured
Clc1ccc(CC2(COc3cccc(Cl)c3Cl)CCNCC2)cc1Cl [Compound 5ad] | melting point | 93.9 to 94.6 °C
COCC1(Cc2ccc(Cl)c(Cl)c2)CCNCC1.O=C(O)/C=C/C(=O)O [Compound 5aa] | melting point | 158.1 to 162.2 °C
COCC1(Cc2cccc(Cl)c2Cl)CCNCC1 (as salt: fumarate) [Compound 5ba] | melting point | 167 to 168.4 °C
Clc1ccc(CC2(COc3ccc(Cl)c(Cl)c3)CCNCC2)cc1Cl (as salt: fumarate) [Compound 5ae] | melting point | 166.3 to 168.9 °C
OCC1(Cc2ccc(Cl)c(Cl)c2)CCNCC1 [Compound 5a] | melting point | 147.7 to 148.7 °C
Clc1ccc(CC2(COc3ccccc3)CCNCC2)cc1Cl (as salt: fumarate) [Compound 5ac] | melting point | 165 to 167 °C
Clc1ccc(OCC2(Cc3ccccc3)CCNCC2)cc1Cl [Compound 5ce] | melting point | 77.7 to 79.3 °C
CCOCC1(Cc2ccc(Cl)c(Cl)c2)CCNCC1.O=C(O)/C=C/C(=O)O | melting point | 147.4 to 150.6 °C
COCC1(Cc2ccc3ccccc3c2)CCNCC1 (as salt: fumarate) [Compound 5da] | melting point | 139 to 142 °C

###

Reported pIC50 is given for each of the following molecules.
Target: serotonine (5-HT) reuptake in synaptosomes (Rattus norvegicus, UniProt P31652)
Construct: in synaptosomes as described in WO 97/16451
Sequence (P31652 whole entry): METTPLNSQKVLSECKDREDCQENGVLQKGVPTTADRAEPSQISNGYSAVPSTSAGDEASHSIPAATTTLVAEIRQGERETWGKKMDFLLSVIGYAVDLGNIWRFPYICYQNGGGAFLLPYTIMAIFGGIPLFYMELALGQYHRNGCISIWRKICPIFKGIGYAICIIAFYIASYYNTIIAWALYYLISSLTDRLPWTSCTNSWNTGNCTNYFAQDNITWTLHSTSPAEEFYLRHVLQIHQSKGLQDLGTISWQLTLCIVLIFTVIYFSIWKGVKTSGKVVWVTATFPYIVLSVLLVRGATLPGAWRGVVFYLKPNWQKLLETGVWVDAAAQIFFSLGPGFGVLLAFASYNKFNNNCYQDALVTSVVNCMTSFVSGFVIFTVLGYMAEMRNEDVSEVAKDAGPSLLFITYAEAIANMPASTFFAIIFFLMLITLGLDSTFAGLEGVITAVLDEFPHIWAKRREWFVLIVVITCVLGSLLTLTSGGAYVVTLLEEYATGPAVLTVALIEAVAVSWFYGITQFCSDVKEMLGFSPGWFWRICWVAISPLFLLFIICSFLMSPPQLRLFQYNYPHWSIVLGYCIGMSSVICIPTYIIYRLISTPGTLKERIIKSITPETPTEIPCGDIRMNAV
Test: Inhibition of 5-HT reuptake in synaptosomes
Conditions: 3H-5-HT, read-out: 5-HT-uptake IC50
pIC50: −log10 of the molar value.

structure string | assay target | pIC50
COCC1(Cc2ccc(Cl)c(Cl)c2)CCNCC1.O=C(O)/C=C/C(=O)O | serotonine (5-HT) reuptake in synaptosomes (Rattus norvegicus, UniProt P31652) | 7.66
Clc1ccc(OCC2(Cc3ccccc3)CCNCC2)cc1Cl | serotonine (5-HT) reuptake in synaptosomes (Rattus norvegicus, UniProt P31652) | 9.59
